Reference source for all entries: PubChem BioAssay (NCATS)

Experiment: qHTS assay for small molecule activators of the p53 signaling pathway (AID 651743); further: % of control where 0% means no effect
Conditions: HCT-116 p53RE-bla, beta-lactamase FRET ratio, 16 h; hits give high values
Records with an inconclusive call do not appear.
reported-property: activation (%)
Express it in %; write the number only.

// solved cases for activation follow
Cc1cc(CC(=O)O)n(C)c1C(=O)c1ccc(Cl)cc1    -3.75
COC(=O)C1=C(C)NC(C)=C(C(=O)OC)C1c1ccccc1[N+](=O)[O-]    -2.95
Cc1cccc(Nc2cc(Cl)nc(SCC(=O)O)n2)c1C    4.88
CN(C)CCOC(C)(c1ccccc1)c1ccccn1 (stereo not given)    2.16
Cc1cc2nc3c(=O)[nH]c(=O)nc-3n(C[C@H](O)[C@H](O)[C@H](O)CO)c2cc1C    -9.36

Ask: Please report the measured activation for CCOC(=O)c1ccc(O)cc1
Result: -7.13

Ask: Please report the measured activation for CCCCC(CC)COC(=O)c1ccccc1O (stereo not given)
Result: 0.46

---

Tested on: CP256
Assay: qHTS profiling for inhibitors of Plasmodium falciparum proliferation (AID 504749); further: nearly all actives have a fitted effect of over 60% in size
Settings: P. falciparum in erythrocytes, SYBR Green DNA, 72 h; series mostly up to 28.7 µM
Records with an inconclusive call do not appear. Activity calls are given as the source filed them. Calls follow the shape of the dose curve; as a rule, active = well fitted inhibition curve with a large enough effect; inconclusive = small, poorly fitted or top-dose-only effect; inactive = flat fitted curve, though single readings scatter.
In this exercise, the only acceptable responses are yes (active), no (inactive)

Solved entries:
CCCc1c(OCCCCc2nn[nH]n2)ccc(C(C)=O)c1O    no
CCN(CC)CCNC(=O)c1c(C)[nH]c(/C=C2\C(=O)Nc3ccc(F)cc32)c1C    yes
CC(=O)CCC(=O)O    no
COc1cc2[nH]c(=O)[nH]c(=O)c2cc1OC    no
O=C(O)CC(O)C(=O)O (stereo unspecified)    no

Alright, here's another compound for you.
Ask: Assay outcome for CCCCCCCCCCCCOS(=O)(=O)O : what was it?
Result: no

---

Some compounds, each annotated with its measured max response.
Experiment: qHTS Assay for Identifying Gametocytocidal Compounds (AID 743244);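 further: on the % scale 0 is the no-effect control and ±100 the full control effect; actives lower the fluorescent signal which means gametocytes are killed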
Details: P. falciparum 3D7 stage III-V gametocytes, alamarBlue, 72 h; hits give low values
Inconclusive results are not listed.
Express it in %; write the number only.

// solved cases for max response follow
Cc1c(O)cccc1C(=O)N[C@@H](CSc1ccccc1)[C@H](O)CN1C[C@H]2CCCC[C@H]2C[C@H]1C(=O)NC(C)(C)C    0.0084
O=C1Nc2ccc(Cl)cc2[C@@](C#CC2CC2)(C(F)(F)F)O1    -21.2
CC[C@@]1(c2ccccc2)NC(=O)N(C)C1=O    7.9

Ask: Please report the measured max response for Cc1ncc([N+](=O)[O-])n1CC(O)CCl (stereo not drawn)
Result: 22.3

Ask: Please report the measured max response for CC(O)COc1ccccc1 (stereo not drawn)
Result: 8.99

---

Some molecules, each annotated with its measured max response.
System: HaCat
Assay: Cytotoxic Profiling of Annotated Libraries Using Quantitative High-Throughput Screening (AID 1296008); further: on the % scale 0 is the no-effect control and ±100 the full control effect; nearly all actives have a fitted effect of over 60% in size
Settings: Five cell lines viability, CellTiter-Glo ATP luminescence, 48-72 h; hits give low values
Description: Cell-based phenotypic screening is a commonly used approach to discover biological pathways, novel drug targets, chemical probes and high-quality hit-to-lead molecules. […] A pintool (Kalypsys) was used to transfer 23 nL of compound solution to the 1536-well assay plates. […] Plates were left at room temperature for 10 min before imaging the ATP-coupled luminescence using a ViewLux microplate imager (PerkinElmer, Waltham, MA).
Records with an inconclusive call do not appear. Activity calls are given as the source filed them. The call rests on the fitted dose curve; in most records, active means well fitted inhibition curve with a large enough effect; inconclusive means small, poorly fitted or top-dose-only effect; inactive means flat fitted curve, though single readings scatter.

// solved cases for max response follow
NS(=O)(=O)c1cc2c(cc1Cl)NC(CSCc1ccccc1)=NS2(=O)=O    -9.13% (inactive)
CNCC(O)c1ccc(O)c(O)c1 (configuration not stated)    -0.0091% (inactive)
O=C(O)c1ccccc1O    2.15% (inactive)
Cc1cc(CC(=O)O)n(C)c1C(=O)c1ccc(Cl)cc1    -1.31% (inactive)
CCCCN(CCCC)CCCOC(=O)c1ccc(N)cc1    -1.28% (inactive)

Ask: Please report the measured max response for CCN(CC)CCSC(=O)C(c1ccccc1)c1ccccc1
Result: -3.95% (inactive)

Ask: Please report the measured max response for Cc1cc(C(C#N)c2ccc(Cl)cc2)c(Cl)cc1NC(=O)c1cc(I)cc(I)c1O (configuration not stated)
Result: -17.7% (inactive)

---

Assay: qHTS Assay for Lipid Storage Modulators (AID 1519); further: on the % scale 0 is the no-effect control and ±100 the full control effect
Conditions: Drosophila S3 cells, BODIPY lipid droplet/cell ratio, laser cytometry; at 57.5 µM (top of the series); cells loaded with oleic acid
Inconclusive results are not listed. The source made the active and inactive calls. Calls follow the shape of the full dose curve.
Some molecules, each annotated with its measured activity change, negative = inhibition.

Ask: Please report the measured activity change, negative = inhibition for CN(C)CCN(Cc1ccccc1)c1ccccn1
Result: 1.48% (inactive)

Ask: Please report the measured activity change, negative = inhibition for NS(=O)(=O)c1cc2c(cc1C(F)(F)F)NC(Cc1ccccc1)NS2(=O)=O (stereo not drawn)
Result: 2.56% (inactive)

Ask: Please report the measured activity change, negative = inhibition for Cc1ccc(C(C)C)cc2c(C)ccc1-2
Result: 7.53% (inactive)

---

Assay: qHTS of pediatric cancer cell lines to identify multiple opportunities for drug repurposing: Primary screen for SK-N-MC cells (AID 1347093)
Conditions: SK-N-MC viability, CellTiter-Glo luminescence, 48 h; series mostly up to 46 µM
Records with an inconclusive call do not appear. Activity calls are given as the source filed them. Calls follow the shape of the dose curve; as a rule, active = well fitted cell-killing curve with a large enough effect; inconclusive = small, poorly fitted or top-dose-only effect; inactive = no such curve, though single readings can be large or run the other way.
In this exercise, the only acceptable responses are active, inactive

Solved entries:
Cc1c(Cl)cccc1Nc1ccccc1C(=O)O    active
N[C@H](C(=O)O)c1ccc(O)cc1    inactive
OC[C@H]1O[C@@H](O[C@@H]2[C@@H](CO)O[C@](O)(CO)[C@H]2O)[C@H](O)[C@@H](O)[C@H]1O    inactive
CC(CN1c2ccccc2Sc2ccccc21)N(C)C (configuration not stated)    inactive
CN1CCC[C@@H]1Cc1c[nH]c2ccc(CCS(=O)(=O)c3ccccc3)cc12    inactive
Oc1cn2c(n1)Nc1ccc(Cl)c(Cl)c1C2    inactive

Ask: Assay outcome for C=Cc1c(C)c2cc3[nH]c(cc4nc(cc5nc(cc1[nH]2)C(C)=C5CCC(=O)O)C(CCC(=O)O)=C4C)c(C)c3C=C : what was it?
Result: inactive

---

Test: NFAT Signaling Pathway (AID 444);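 further: carbachol stimulus at about its EC50 of 1 µM final; on the % scale 0 is the no-effect control and ±100 the full control effect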
Conditions: Jurkat NFAT-bla M1, carbachol, beta-lactamase ratio, 5 h; at 38 µM (top of the series)
Experimental: NCGC Assay Overview: The nuclear factor of activated T cells (NFAT) family of transcription factors has been found primarily in most immune system cells and some other non-immune cells. NFAT plays the immunomodulatory role, primarily in T-cell activation and differentiation. […] NCGC Assay Protocol Summary: The cells were prepared in RPMI 1640 medium containing 0.1% dialyzed FBS and 25 mM HEPES at 1.6 x 10^6cell/ml. […] The %Activity was determined from the ratio of 460nm/530nm. […]
Results filed as inconclusive are left out.
reported-property: activity change, negative = inhibition (%)
Express it in %; write the number only.

Ask: Please report the measured activity change, negative = inhibition for NC1CCN(c2cccc(Cl)n2)CC1
Result: -6.65

Ask: Please report the measured activity change, negative = inhibition for COc1ccc(Cl)cc1C(=O)NCCc1ccc(S(=O)(=O)NC(=O)NC2CCCCC2)cc1
Result: 0.0491

Ask: Please report the measured activity change, negative = inhibition for CCCCCCCCCCCCCCCC(=O)NCCO
Result: 9.44

Ask: Please report the measured activity change, negative = inhibition for Cc1cc(N)c2ccccc2[n+]1CCCCCCCCCC[n+]1c(C)cc(N)c2ccccc21
Result: -78.7

Ask: Please report the measured activity change, negative = inhibition for CC1=C(CC(=O)O)c2cc(F)ccc2/C1=C\c1ccc(S(C)(=O)=O)cc1
Result: 13.8

---

Biological target: Glutaminase kidney isoform, mitochondrial (Homo sapiens)
Assay: qHTS for Inhibitors of Glutaminase (GLS): LOPAC Validation (AID 624146);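 further: glutamate product detected by oxidase and peroxidase coupled Amplex red fluorescence gain; on the % scale 0 is the no-effect control and ±100 the full control effect; nearly all actives have a fitted effect of over 60% in size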
Conditions: glutaminase enzyme activity inhibition; series mostly up to 46.1 µM
Records with an inconclusive call do not appear. Calls of active or inactive are those of the source. Calls follow the shape of the dose curve; as a rule, active = well fitted inhibition curve with a large enough effect; inconclusive = small, poorly fitted or top-dose-only effect; inactive = no such curve, though single readings can be large or run the other way.
In this exercise, the only acceptable responses are Y = active, N = inactive

Solved entries:
C#CCN(C)Cc1ccccc1    N
CC(C)(C(=O)O)c1ccc(C(O)CCCN2CCC(C(O)(c3ccccc3)c3ccccc3)CC2)cc1 (stereo unspecified)    N
CCN(CC)CCCC(C)Nc1c2ccc(Cl)cc2nc2ccc(OC)cc12 (stereo unspecified)    N
NC1CCN(c2cccc(Cl)n2)CC1    N
OCc1cc(C(O)CNCCCCCCOCCCCc2ccccc2)ccc1O (stereo unspecified)    N
CC(C(O)c1ccc(O)cc1)N1CCC(Cc2ccccc2)CC1 (stereo unspecified)    N

Ask: Assay outcome for C=Cc1c(C)c2cc3[nH]c(cc4nc(cc5nc(cc1[nH]2)C(C)=C5CCC(=O)O)C(CCC(=O)O)=C4C)c(C)c3C=C : what was it?
Result: N

Ask: Assay outcome for CC1=C(CC(=O)O)c2cc(F)ccc2/C1=C\c1ccc(S(C)(=O)=O)cc1 : what was it?
Result: N

Ask: Assay outcome for CNCCC(Oc1ccc(C(F)(F)F)cc1)c1ccccc1 (stereo unspecified) : what was it?
Result: N

Ask: Assay outcome for CN(C)CCCN1c2ccccc2CCc2ccccc21 : what was it?
Result: N

Ask: Assay outcome for CC(CN(C)C)CN1c2ccccc2CCc2ccccc21 (stereo unspecified) : what was it?
Result: N
